Provenance of the data: ChEMBL document CHEMBL3822455

Assign pEC50 to each entry below.
Tested on: Hepatitis C virus
assay_notes: Antiviral activity against HCV genotype 4a assessed as replicon RNA level measured after 3 days by real-time PCR method
Assay type: functional, organism-based, Hepacivirus hominis
experimental_parameters: 72 h
One number for each entry, as −log10 of the molar value.

COC(=O)N[C@H](C(=O)N1CCC[C@H]1c1ncc(-c2ccc3c(c2)OC(c2ccc(OC)cc2)n2c-3cc3cc(-c4cnc([C@@H]5CCCN5C(=O)[C@@H](NC(=O)OC)C(C)C)[nH]4)ccc32)[nH]1)C(C)C (mixture of isomers); 11.10

Report pEC50 for each item below.
1. COC(=O)N[C@H](C(=O)N1CCC[C@H]1c1ncc(-c2ccc3c(c2)OC(c2ccc(-c4ccc5cncn5c4)cc2)n2c-3cc3cc(-c4cnc([C@@H]5CCCN5C(=O)[C@@H](NC(=O)OC)C(C)C)[nH]4)ccc32)[nH]1)C(C)C (mixture of isomers)
2. COC(=O)N[C@H](C(=O)N1CCC[C@H]1c1ncc(-c2ccc3c(c2)OC(c2cccc(-c4noc(C)n4)c2)n2c-3cc3cc(-c4cnc([C@@H]5CCCN5C(=O)[C@@H](NC(=O)OC)C(C)C)[nH]4)ccc32)[nH]1)C(C)C (mixture of isomers)
3. COC(=O)N[C@H](C(=O)N1CCC[C@H]1c1ncc(-c2ccc3c(c2)OC(c2cccc(C(=O)O)c2)n2c-3cc3cc(-c4cnc([C@@H]5CCCN5C(=O)[C@@H](NC(=O)OC)C(C)C)[nH]4)ccc32)[nH]1)C(C)C (mixture of isomers)

1: 10.52; 2: 11.00; 3: 8.29

---

Test system: Hepatitis C virus
assay_notes: Antiviral activity against HCV genotype 4a assessed as replicon RNA level measured after 3 days by real-time PCR method
Assay type: functional, organism-based, Hepacivirus hominis
experimental_parameters: 72 h
assay_metric: EC50 (pM)
Give bare numbers, in pM.

Would you mind listing EC50 for each of the following compounds?
1. COC(=O)N[C@H](C(=O)N1CCC[C@H]1c1ncc(-c2ccc3c(c2)OC(c2cccc(OC(F)(F)F)c2)n2c-3cc3cc(-c4cnc([C@@H]5CCCN5C(=O)[C@@H](NC(=O)OC)C(C)C)[nH]4)ccc32)[nH]1)C(C)C (mixture of isomers)
2. COC(=O)N[C@H](C(=O)N1CCC[C@H]1c1ncc(-c2ccc3c(c2)OC(c2ccc(-c4c(C)nn(C)c4C)cc2)n2c-3cc3cc(-c4cnc([C@@H]5CCCN5C(=O)[C@@H](NC(=O)OC)C(C)C)[nH]4)ccc32)[nH]1)C(C)C (mixture of isomers)
3. COC(=O)N[C@H](C(=O)N1CCC[C@H]1c1ncc(-c2ccc3c(c2)OC(c2ccc(C)cc2)n2c-3cc3cc(-c4cnc([C@@H]5CCCN5C(=O)[C@@H](NC(=O)OC)C(C)C)[nH]4)ccc32)[nH]1)C(C)C (some centres undefined)
4. COC(=O)N[C@H](C(=O)N1CCC[C@H]1c1ncc(-c2ccc3c(c2)OC(c2cccc(-c4cccnc4)c2)n2c-3cc3cc(-c4cnc([C@@H]5CCCN5C(=O)[C@@H](NC(=O)OC)C(C)C)[nH]4)ccc32)[nH]1)C(C)C (mixture of isomers)
5. COC(=O)N[C@H](C(=O)N1CCC[C@H]1c1ncc(-c2ccc3c(c2)OC(c2cccc(-c4ccccc4)c2)n2c-3cc3cc(-c4cnc([C@@H]5CCCN5C(=O)[C@@H](NC(=O)OC)C(C)C)[nH]4)ccc32)[nH]1)C(C)C (some centres undefined)
6. COC(=O)N[C@H](C(=O)N1CCC[C@H]1c1ncc(-c2ccc3c(c2)OC(c2cccc(-c4ncon4)c2)n2c-3cc3cc(-c4cnc([C@@H]5CCCN5C(=O)[C@@H](NC(=O)OC)C(C)C)[nH]4)ccc32)[nH]1)C(C)C (mixture of isomers)
7. COC(=O)N[C@H](C(=O)N1CCC[C@H]1c1ncc(-c2ccc3c(c2)OC(c2cccc(C(=O)N(C)C)c2)n2c-3cc3cc(-c4cnc([C@@H]5CCCN5C(=O)[C@@H](NC(=O)OC)C(C)C)[nH]4)ccc32)[nH]1)C(C)C (mixture of isomers)

1: 10; 2: 30; 3: 700; 4: 3; 5: 5; 6: 20; 7: 180

// recorded EC50 for COC(=O)N[C@H](C(=O)N1CCC[C@H]1c1ncc(-c2ccc3c(c2)OC(c2ccc(Cl)cc2)n2c-3cc3cc(-c4cnc([C@@H]5CCCN5C(=O)[C@@H](NC(=O)OC)C(C)C)[nH]4)ccc32)[nH]1)C(C)C (some centres undefined) : 10
